Assayed system: PHD finger of PHF23 (aa 338-393), L358M cancer-relevant mutant (human, UniProt Q9BUL5 338-393, L358M)
Sequence (Q9BUL5 338-393 L358M): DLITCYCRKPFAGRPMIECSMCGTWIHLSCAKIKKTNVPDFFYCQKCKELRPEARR
Non-standard residues stand in square brackets, D forms with d. No end group written: not given here. Lys(Me3) = C[N+](C)(C)CCCC[C@H](N)C(=O)O
Metric: Kd (nM)
Provide only the numeric value, understood in nM.

The binder listed as ART[Lys(Me3)]QTARKSTG (peptide, UniProt P68431 2-13, looked up, histone H3, residues 1-12, trimethylated on Lys4; source: synthetic peptide (SynPeptide)) [histone H3K4me3 peptide (aa 1-12 of H3K4me3)] has a reported Kd of 2400
